system: MDA-N; test: NCI tumour cell line growth inhibition, 48 h
Activity calls are given as the source filed them. Cut-off read from the data, not from the text of the source: active = GI50 up to about 1.1 µM and inactive = higher.
# valid calls are yes (active), no (inactive); nothing else

INSERT INTO results (molecule, group_label) VALUES
  ('CCOC(=O)C(=CNc1ccc(F)c(F)c1)C(=O)OCC', 'no'),
  ('Cc1ccccc1OC(C)C(=O)NN1C(=O)CC(=O)NC1=S (stereo not given)', 'no'),
  ('NC(=O)C(N)CC12CC3CC(CC(C3)C1)C2 (stereo not given)', 'no'),
  ('CCN1C(=O)C(=C/C=C/c2ccc([N+](=O)[O-])cc2)C(=O)N(CC)C1=S', 'no');

Query: Outcome? COc1ccc(/C=C2\CCC(C)C3=C(c4ccc(OC)c(OC)c4)C(C#N)=C(N)OC32)cc1OC (stereo not given)
Response: no

Query: Outcome? `COC(=O)C(CCSc1ccccc1)C(=O)OC`
Response: no

Query: Outcome? `COc1ccc(NC(=O)c2cc(NC(=O)/C=C/c3ccccc3)c(OC)c(OC)c2)cc1`
Response: no

Query: Outcome? `Cc1cc(N(CCOS(C)(=O)=O)CCOS(C)(=O)=O)ccc1/C=N/c1ccc(-c2csc(-c3ccccc3)n2)c(Cl)c1`
Response: no

Query: Outcome? `O=c1nc2n(CCO)c(-c3ccccc3)c(-c3ccccc3)nc-2c(=O)[nH]1`
Response: no

Query: Outcome? `CCOc1ccc(/C=C2\N=C(c3ccc([N+](=O)[O-])cc3)OC2=O)cc1`
Response: no

Query: Outcome? COc1cc(C(O)(CC#N)c2cc3c(cc2Br)OCO3)cc(OC)c1OC (stereo not given)
Response: no
